I'd appreciate it if you could supply viability, T/C values for the items below.
Test system: 313798-341-R-J2-PDC spheroids, viability;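 further: spheroids exposed to compounds for seven days; 100% = DMSO vehicle control viability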
Assay: Anticancer human tumor 313798-341-R-J2-PDC patient-derived cervical squamous cell carcinoma cell line growth inhibition [PI3K]
Details: second compound 0.316 µM; first compound 1 µM; active compounds read low; spheroids with HUVEC and MSC
Description: Combinatorial screen of targeted agents with the PI3K inhibitors inavolisib, alpelisib, duvelisib, and copanlisib in multi-cell type tumor spheroids A high-throughput screen of multi-cell type tumor spheroids was designed to identify active combinations of targeted small molecules and PI3K pathway inhibitors. […] Compounds. […] If the clinical Cmax for an agent had not been determined, the highest concentration tested was 10 microM. […]
Answers are plain numbers, in %.

CCCS(=O)(=O)Nc1ccc(F)c(C(=O)c2c[nH]c3ncc(-c4ccc(Cl)cc4)cc23)c1F + CC(Nc1ccc2c(c1)OCCn1cc(N3C(=O)OCC3C(F)F)nc1-2)C(N)=O : 73.6
CNC(=O)c1ccc(N2C(=S)N(c3ccc(C#N)c(C(F)(F)F)c3)C(=O)C2(C)C)cc1F + CC(Nc1ccc2c(c1)OCCn1cc(N3C(=O)OCC3C(F)F)nc1-2)C(N)=O : 70.2
C#Cc1c(F)ccc2cc(O)cc(-c3ncc4c(N5CC6CCC(C5)N6)nc(OCC56CCCN5CC(F)C6)nc4c3F)c12 (stereo not given) + Cc1nc(NC(=O)N2CCCC2C(N)=O)sc1-c1ccnc(C(C)(C)C(F)(F)F)c1 : 108
CC1(C)CCC(CN2CCN(c3ccc(C(=O)NS(=O)(=O)c4ccc(NCC5CCOCC5)c([N+](=O)[O-])c4)c(Oc4cnc5[nH]ccc5c4)c3)CC2)=C(c2ccc(Cl)cc2)C1 + CC(Nc1ccc2c(c1)OCCn1cc(N3C(=O)OCC3C(F)F)nc1-2)C(N)=O : 60.1
CCN1CCN(Cc2ccc(Nc3ncc(F)c(-c4cc(F)c5nc(C)n(C(C)C)c5c4)n3)nc2)CC1 + COc1c(OCCCN2CCOCC2)ccc2c3n(c(=NC(=O)c4cnc(N)nc4)nc12)CCN3 : 30
Cn1nccc1Nc1nccc(-c2ccn(C(CO)c3ccc(Cl)c(F)c3)c(=O)c2)n1 (stereo not given) + CC(Nc1ncnc2nc[nH]c12)c1cc2cccc(Cl)c2c(=O)n1-c1ccccc1 : 95

Required: viability, T/C, one value per compound below.
1. C=CC(=O)N1CCN(c2nc(=O)n(-c3c(C)ccnc3C(C)C)c3nc(-c4c(O)cccc4F)c(F)cc23)C(C)C1 (stereo not given) + CC(Nc1ccc2c(c1)OCCn1cc(N3C(=O)OCC3C(F)F)nc1-2)C(N)=O
2. CC1(C)CCC(CN2CCN(c3ccc(C(=O)NS(=O)(=O)c4ccc(NCC5CCOCC5)c([N+](=O)[O-])c4)c(Oc4cnc5[nH]ccc5c4)c3)CC2)=C(c2ccc(Cl)cc2)C1 + Cc1nc(NC(=O)N2CCCC2C(N)=O)sc1-c1ccnc(C(C)(C)C(F)(F)F)c1
3. CC(C)NCC(C(=O)N1CCN(c2ncnc3c2C(C)CC3O)CC1)c1ccc(Cl)cc1 (stereo not given) + CC(Nc1ncnc2nc[nH]c12)c1cc2cccc(Cl)c2c(=O)n1-c1ccccc1
4. C#Cc1c(F)ccc2cc(O)cc(-c3ncc4c(N5CC6CCC(C5)N6)nc(OCC56CCCN5CC(F)C6)nc4c3F)c12 (stereo not given) + COc1c(OCCCN2CCOCC2)ccc2c3n(c(=NC(=O)c4cnc(N)nc4)nc12)CCN3

Reply:
[96.7, 107, 62, 13.4]
